System: CEM cells HIV-1 protection, formazan growth assay
assayDetails: NCI AIDS Antiviral Assay
conditionSet: measured here: growth of uninfected CEM cells
Reported IC50 is given for each of the following compounds.
Quick note: give the figure in µM, leave out the unit.

Below, 3 compounds whose answers are already recorded.
> print(dat)
                                   compound  assayendpoint  readingunit  recordedvalue
1       CCCCc1ccc(Nc2nc(Cl)c3[nH]cnc3n2)cc1           IC50           µM           26.3
2  C[C@@H](CCO)OC1OC(COC(=O)C(C)(C)C)C(OC(=O)C(C)(C)C)C(OC(=O)C(C)(C)C)C1OC(=O)C(C)(C)C (stereo not given in full)           IC50           µM             12
3  Cc1ccc2c(c1)C(=O)N1CSCC1C(=O)S2 (stereo not given)           IC50           µM           32.4

Moving on to the next compound.
Task: Record COC(=O)[C@@H](Cc1ccccc1)N1O[C@]12CCCC[C@@H]2NC(=O)OC(C)(C)C (stereo not given in full) : what is its IC50 with CEM cells HIV-1 protection, formazan growth assay?
Result: 32.4

This collection of values is drawn from PubChem BioAssay AID179.
